Assay: A CellTox Green Cytotoxicity Assay to monitor cytotoxicity in HEK293 cells - 32 hour (AID 1224881); note: nearly all actives have a fitted effect of over 40% in size
Settings: CellTox Green fluorescence; series mostly up to 76.8 µM
Inconclusive results are not listed. Calls of active or inactive are those of the source. Calls come from the whole dose curve; as a rule, active = well fitted activation curve with a large enough effect in the repeat runs; inconclusive = weak or mixed curves; inactive = flat fitted curve, though single readings scatter.
Please reply with one of these outcomes: YES for active, NO for inactive

[
  {
    "Compound": "COP(=O)(OC)O/C(=C/Cl)c1cc(Cl)c(Cl)cc1Cl",
    "Group Label": "NO"
  }
]

Query: Give the logged outcome of this assay for the following compound: "O=C(O)C(F)(F)C(F)(F)C(F)(F)C(F)(F)C(F)(F)C(F)(F)C(F)(F)C(F)(F)C(F)(F)F"
Result: NO

Query: Give the logged outcome of this assay for the following compound: "CC(Cl)Cl"
Result: NO

Query: Give the logged outcome of this assay for the following compound: "Nc1nc(N)nc(N)n1"
Result: NO

Query: Give the logged outcome of this assay for the following compound: CCCCC(CC)COP(=O)(Oc1ccccc1)Oc1ccccc1 (stereo unspecified)
Result: NO

Query: Give the logged outcome of this assay for the following compound: "IC(I)=C(I)I"
Result: YES

Query: Give the logged outcome of this assay for the following compound: "Cc1ccc(-c2c(Cl)nc(C#N)n2S(=O)(=O)N(C)C)cc1"
Result: NO

###

Target: Aryl hydrocarbon receptor (Homo sapiens)
Experiment: qHTS assay to identify small molecule that activate the aryl hydrocarbon receptor (AhR) signaling pathway (AID 743085);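 note: HG2L7.5c1 human HepG2 liver cells with stably integrated DRE-driven firefly reporter; % is set by controls: 0 for no effect and ±100 for the full control effect; nearly all actives have a fitted effect of over 15% in size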
Settings: HepG2 AhR-luc (HG2L7.5c1), luciferase, 24 h; series mostly up to 70.3 µM
Results filed as inconclusive are left out. The source made the active and inactive calls. The call rests on the fitted dose curve; in most records, active means well fitted activation curve with a large enough effect in the repeat runs; inconclusive means weak or mixed curves; inactive means no such curve, though single readings can be large or run the other way.

[
  {
    "Line Notation": "CCOP(=O)(OCC)SCCSCC",
    "outcome": "inactive"
  },
  {
    "Line Notation": "c1ccoc1",
    "outcome": "inactive"
  },
  {
    "Line Notation": "ClCCCCBr",
    "outcome": "inactive"
  }
]

###

Experiment: qHTS RealTime-Glo MT Cell Viability Assay in HEK293 cells - 16 hour (AID 1224872); note: top concentration of the series differs between compounds; % is set by controls: 0 for no effect and ±100 for the full control effect; nearly all actives have a fitted effect of over 50% in size
Conditions: RealTime-Glo luminescence; series mostly up to 76.8 µM
Records with an inconclusive call do not appear. Active and inactive are the calls of the source. The call rests on the fitted dose curve; in most records, active means well fitted cell-killing curve with a large enough effect in the repeat runs; inconclusive means weak or mixed curves, or effect the other way; inactive means flat fitted curve, though single readings scatter.
Please reply with one of these outcomes: active, inactive

Some solved cases for reference:
[
  {
    "Compound": "CN1C(=O)C(O)N=C(c2ccccc2)c2cc(Cl)ccc21 (stereo not drawn)",
    "Group Label": "inactive"
  },
  {
    "Compound": "CC(Cl)C(C)Cl (stereo not drawn)",
    "Group Label": "inactive"
  },
  {
    "Compound": "O=C=Nc1ccc(Cl)cc1",
    "Group Label": "inactive"
  },
  {
    "Compound": "COc1cc(Cl)c(OC)cc1Cl",
    "Group Label": "inactive"
  },
  {
    "Compound": "[O-][Cl+]O",
    "Group Label": "inactive"
  }
]

Query: Give the logged outcome of this assay for the following compound: "O=[Se]=O"
Result: inactive

Query: Give the logged outcome of this assay for the following compound: "Nc1ccc(N=Nc2ccc(-c3ccc(N=Nc4c(S(=O)(=O)O)cc5cc(S(=O)(=O)O)c(N=Nc6ccccc6)c(O)c5c4N)cc3)cc2)c(N)c1"
Result: inactive

Query: Give the logged outcome of this assay for the following compound: "COC1=CC(=O)O[C@@H](CCc2ccccc2)C1"
Result: inactive

Query: Give the logged outcome of this assay for the following compound: "c1ccoc1"
Result: inactive

Query: Give the logged outcome of this assay for the following compound: "C=CC(C)=O"
Result: inactive

Query: Give the logged outcome of this assay for the following compound: "O=S1(=O)OC(c2cc(Br)c(O)c(Br)c2)(c2cc(Br)c(O)c(Br)c2)c2ccccc21"
Result: inactive

Query: Give the logged outcome of this assay for the following compound: "Clc1cccc(SC2CCNCC2)n1"
Result: inactive

###

Assay: Caspase-3/7 induction in HepG2 cells by small molecules, qHTS cell viability counter screen (AID 1346981); note: % is set by controls: 0 for no effect and ±100 for the full control effect; nearly all actives have a fitted effect of over 30% in size
Details: CellTiter-Fluor fluorescence, 17 h; series mostly up to 92.4 µM
Results filed as inconclusive are left out. Calls of active or inactive are those of the source. The call rests on the fitted dose curve; in most records, active means well fitted cell-killing curve with a large enough effect in the repeat runs; inconclusive means weak or mixed curves, or effect the other way; inactive means flat fitted curve, though single readings scatter.
Please reply with one of these outcomes: t = active, f = inactive

Some solved cases for reference:
[
  {
    "Compound": "CNC(C)Cc1ccccc1OC (configuration not stated)",
    "Group Label": "f"
  },
  {
    "Compound": "O=[N+]([O-])C(Br)(CO)CO",
    "Group Label": "f"
  },
  {
    "Compound": "CCn1cc[n+](C)c1",
    "Group Label": "f"
  },
  {
    "Compound": "O=C1C(Cl)C(CCl)CN1c1cccc(C(F)(F)F)c1 (configuration not stated)",
    "Group Label": "f"
  },
  {
    "Compound": "COP(=O)(OC)O/C(=C/Cl)c1cc(Cl)c(Cl)cc1Cl",
    "Group Label": "f"
  }
]

Query: Give the logged outcome of this assay for the following compound: CC(O)(CS(=O)(=O)c1ccc(F)cc1)C(=O)Nc1ccc(C#N)c(C(F)(F)F)c1 (configuration not stated)
Result: f

Query: Give the logged outcome of this assay for the following compound: "Cc1ccccc1C(=O)Nc1cccc(OC(C)C)c1"
Result: f

Query: Give the logged outcome of this assay for the following compound: Clc1ccc(C(OCCN2CCCCC2)c2ccccc2)cc1 (configuration not stated)
Result: f

Query: Give the logged outcome of this assay for the following compound: COCC(C)N(C(=O)CCl)c1c(C)csc1C (configuration not stated)
Result: f

Query: Give the logged outcome of this assay for the following compound: "[O-][Cl+]O"
Result: f

Query: Give the logged outcome of this assay for the following compound: "Cl/C=C\C[N+]12CN3CN(CN(C3)C1)C2"
Result: f

Query: Give the logged outcome of this assay for the following compound: "CCOP(=S)(OCC)Oc1cc(Cl)c(Br)cc1Cl"
Result: f

Query: Give the logged outcome of this assay for the following compound: Cn1cc[n+](C)c1 (tested in a mixture with another compound)
Result: f

Query: Give the logged outcome of this assay for the following compound: "CCOP(=O)(OCC)Oc1ccc([N+](=O)[O-])cc1"
Result: f

###

Target: Androgen receptor (Homo sapiens)
Assay: qHTS assay to identify small molecule antagonists of the androgen receptor (AR) signaling pathway (AID 743035)
Settings: HEK293 AR-UAS-bla, R1881-stimulated, beta-lactamase FRET, 16 h; series mostly up to 58.5 µM
Records with an inconclusive call do not appear. The source made the active and inactive calls. Calls come from the whole dose curve; as a rule, active = well fitted inhibition curve with a large enough effect in the signal ratio in the repeat runs (not every such curve was filed as active); inconclusive = weak or mixed curves, or effect the other way; inactive = no such curve, though single readings can be large or run the other way; the % refers to the signal ratio.
Please reply with one of these outcomes: 1 (yes) for active, 0 (no) for inactive

[
  {
    "Line Notation": "Cc1ccc2ccccc2c1",
    "Group Label": "0 (no)"
  },
  {
    "Line Notation": "c1ccc(C2CC2)c(OCC2=NCCN2)c1",
    "Group Label": "0 (no)"
  },
  {
    "Line Notation": "COc1ccc(-c2ccccc2)cc1NNC(=O)OC(C)C",
    "Group Label": "1 (yes)"
  },
  {
    "Line Notation": "Brc1ccccc1",
    "Group Label": "0 (no)"
  }
]

Query: Give the logged outcome of this assay for the following compound: "CC(C)=CCOc1c2occc2cc2ccc(=O)oc12"
Result: 0 (no)

Query: Give the logged outcome of this assay for the following compound: "CS/C(C)=N/OC(=O)N(C)SN(C)C(=O)O/N=C(\C)SC"
Result: 0 (no)

Query: Give the logged outcome of this assay for the following compound: "C[N+](C)(C)CCCl"
Result: 0 (no)

Query: Give the logged outcome of this assay for the following compound: "O=NN1CCCCCC1"
Result: 0 (no)

###

Assay: qHTS assay to identify small molecule antagonists of the estrogen related receptor (ERR) signaling pathway from Tox21 library - cell viability counter screen (AID 1224834); note: nearly all actives have a fitted effect of over 30% in size
Conditions: ERR reporter cells viability, CellTiter-Fluor, 17.5 h; series mostly up to 92.4 µM
Results filed as inconclusive are left out. Calls of active or inactive are those of the source. Calls follow the shape of the dose curve; as a rule, active = well fitted cell-killing curve with a large enough effect in the repeat runs; inconclusive = weak or mixed curves; inactive = flat fitted curve, though single readings scatter.
Please reply with one of these outcomes: True = active, False = inactive

Some solved cases for reference:
[
  {
    "Molecule": "C[N+](C)(C)CCCl",
    "Group Label": "False"
  },
  {
    "Molecule": "[O-][Cl+]O",
    "Group Label": "False"
  },
  {
    "Molecule": "CCOC(=O)C(Cl)C(C)=O (centres undefined)",
    "Group Label": "False"
  },
  {
    "Molecule": "Nc1nc(N)nc(N)n1",
    "Group Label": "False"
  },
  {
    "Molecule": "CC1(C)[C@H](C=C(Cl)Cl)[C@@H]1C(=O)O[C@@H](C#N)c1cccc(Oc2ccccc2)c1",
    "Group Label": "False"
  }
]

Query: Give the logged outcome of this assay for the following molecule: "BrCCCCBr"
Result: False

Query: Give the logged outcome of this assay for the following molecule: "O=C(O)c1ccccc1C(=O)Nc1cccc2ccccc12"
Result: False

Query: Give the logged outcome of this assay for the following molecule: "c1ccc(C2CC2)c(OCC2=NCCN2)c1"
Result: False

Query: Give the logged outcome of this assay for the following molecule: "COC(N)=O"
Result: False

Query: Give the logged outcome of this assay for the following molecule: "O=[N+]([O-])c1ccccc1CCl"
Result: False

Query: Give the logged outcome of this assay for the following molecule: "COc1c(C(C)(C)C)cc([N+](=O)[O-])c(C)c1[N+](=O)[O-]"
Result: False

Query: Give the logged outcome of this assay for the following molecule: "CCOS(C)(=O)=O"
Result: False

Query: Give the logged outcome of this assay for the following molecule: "C[C@]12CC[C@H]3[C@@H](CCC4=CC(=O)CC[C@@H]43)[C@@H]1CC[C@@H]2OC(=O)CCC1CCCCC1"
Result: False

Query: Give the logged outcome of this assay for the following molecule: "COc1ccc(-c2ccccc2)cc1NNC(=O)OC(C)C"
Result: True

Query: Give the logged outcome of this assay for the following molecule: "IC(I)=C(I)I"
Result: True

Query: Give the logged outcome of this assay for the following molecule: "COP(=S)(OC)Oc1ccc([N+](=O)[O-])cc1Cl"
Result: True

Query: Give the logged outcome of this assay for the following molecule: "Cc1cc(=O)[nH]o1"
Result: False

Query: Give the logged outcome of this assay for the following molecule: "CCOP(=S)(OCC)SCSCC"
Result: False

Query: Give the logged outcome of this assay for the following molecule: "Clc1cc(C(Cl)(Cl)Cl)cnc1Cl"
Result: False

Query: Give the logged outcome of this assay for the following molecule: "N#C/C(N)=C(/N)C#N"
Result: False

Query: Give the logged outcome of this assay for the following molecule: CCCC(Cn1cncn1)c1ccc(Cl)cc1Cl (centres undefined)
Result: True

Query: Give the logged outcome of this assay for the following molecule: "O=Cc1ccc(Cl)cc1Cl"
Result: False

Query: Give the logged outcome of this assay for the following molecule: "Brc1ccc(Oc2ccccc2)cc1"
Result: False
